For each entry below, report its inhibition at 0.3 µM value.
EXPERIMENTAL_SYSTEM: hTRPV3 (Homo sapiens, UniProt Q8NET8)
Construct: expressed in transfected cells; host or cells: HEK-293
Sequence (Q8NET8 whole entry): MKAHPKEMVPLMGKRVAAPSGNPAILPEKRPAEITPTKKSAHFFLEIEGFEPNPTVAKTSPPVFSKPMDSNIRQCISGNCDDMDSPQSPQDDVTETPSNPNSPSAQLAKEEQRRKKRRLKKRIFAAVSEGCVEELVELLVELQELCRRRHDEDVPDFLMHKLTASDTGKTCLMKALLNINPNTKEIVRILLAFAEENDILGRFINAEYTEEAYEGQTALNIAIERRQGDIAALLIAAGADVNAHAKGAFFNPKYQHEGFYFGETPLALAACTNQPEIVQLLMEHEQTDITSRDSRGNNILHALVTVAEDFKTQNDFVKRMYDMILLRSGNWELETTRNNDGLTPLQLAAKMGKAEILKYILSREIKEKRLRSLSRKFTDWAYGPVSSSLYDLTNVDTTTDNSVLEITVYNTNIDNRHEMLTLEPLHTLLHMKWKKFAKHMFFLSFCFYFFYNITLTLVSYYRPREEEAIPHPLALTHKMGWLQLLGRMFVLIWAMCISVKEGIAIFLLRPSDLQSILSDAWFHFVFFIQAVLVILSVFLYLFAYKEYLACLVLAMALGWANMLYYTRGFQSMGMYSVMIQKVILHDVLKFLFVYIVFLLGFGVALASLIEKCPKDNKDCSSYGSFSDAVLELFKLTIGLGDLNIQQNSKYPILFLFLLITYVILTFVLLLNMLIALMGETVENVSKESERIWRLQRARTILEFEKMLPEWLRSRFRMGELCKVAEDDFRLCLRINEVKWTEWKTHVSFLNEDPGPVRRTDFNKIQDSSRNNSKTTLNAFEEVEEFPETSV
TEST_NAME: Whole cell patch clamp inhibition rate test on HEK-293 cells instantaneously expressing TRPV3
Format: cell-based
CONDITION_INFO: HEK293; hTRPV3, single concentration 0.3 μM

Solved cases (6 shown):
COMPOUND	inhibition at 0.3 µM
O=C(c1cccc(C2CC2)n1)N1CC[C@]2(C[C@H](O)c3cc(-c4ccccc4C4CC4)ccc32)C1	< 25%
O=C(c1ccc(C(F)(F)F)cn1)N1CCC2(CC(O)c3cc(-c4ccccc4C4CC4)ccc32)C1 (stereo not drawn)	70 to 100%
CCc1ccccc1-c1ccc2c(c1)C(O)CC21CCN(C(=O)c2ccc(F)cn2)C1 (stereo not drawn)	70 to 100%
CC(C)c1ccccc1-c1ccc2c(c1)C(O)CC21CCN(C(=O)c2cocn2)C1 (stereo not drawn)	50 to 70%
CC(C)c1ccccc1-c1ccc2c(c1)[C@H](O)C[C@]21CCN(C(=O)c2cccc(C3CC3)n2)C1	< 25%
OC1CC2(CCN(c3cnc4cc(F)ccn34)C2)c2ccc(-c3ccccc3C3CC3)cc21 (stereo not drawn)	70 to 100%

For every listed record, write down its inhibition at 0.3 µM.
1. O=C(c1csc(Cl)n1)N1CC[C@@]2(C[C@H](O)c3cc(-c4ccccc4C4CC4)ccc32)C1
2. CC(C)c1ccccc1-c1ccc2c(c1)C(O)CC21CCN(C(=O)c2ccncn2)C1 (stereo not drawn)
3. CC(C)c1ccccc1-c1ccc2c(c1)C(CO)CC21CCN(C(=O)c2ccc(F)cn2)C1 (stereo not drawn)
4. O=C(c1ccc(F)cn1)N1CC[C@@]2(C[C@H](O)c3cc(-c4ccccc4C4CC4)ccc32)C1
5. CC(C)c1ccccc1-c1ccc2c(c1)C(O)CC21CCN(C(=O)c2ccc(F)cn2)C1 (stereo not drawn)

1: < 25%; 2: 50 to 70%; 3: 70 to 100%; 4: < 25%; 5: 70 to 100%

Give a short answer stating reported inhibition at 0.3 µM for CC(C)c1ccccc1-c1ccc2c(c1)[C@H](O)C[C@]21CCN(C(=O)c2csc(Cl)n2)C1 .
< 25%
